- System: Escherichia coli
- PROTOCOL_NOTES: Antibacterial activity against Escherichia coli IH3080 assessed as growth inhibition at 10 ug after 18 hrs by […]
- Assay type: functional
Bridge positions count the residues as written; N and C are the ends. Square brackets hold non-standard residues; d marks the D form. Peptide text beside a SMILES is read from it. * marks the point of attachment. Octanoyl = CCCCCCCC(=O)*; Dab = NCC[C@H](N)C(=O)O; Abu = CC[C@H](N)C(=O)O
Answer each item with its documented inhibition zone (IZ).
One number for each entry, in mm2.

Problem: Quick check: inhibition zone (IZ) of CCCCCCCC(=O)N[C@H](C(=O)N[C@@H](CCN)C(=O)N[C@H]1CCNC(=O)[C@H]([C@@H](C)O)NC(=O)[C@H](CCN)NC(=O)[C@H](CC)NC(=O)[C@H](CC(C)C)NC(=O)[C@@H](Cc2ccccc2)NC(=O)[C@H](CCN)NC1=O)[C@@H](C)O (Octanoyl-T[Dab][Dab][Dab][dF]L[Abu][Dab]T; lactam 3-C) ?
Solution: 60

Problem: What do you get for CCCCCCCC(=O)N[C@H](C(=O)N[C@H](C)C(=O)N[C@H]1CCNC(=O)[C@H]([C@@H](C)O)NC(=O)[C@H](CCN)NC(=O)[C@H](CCN)NC(=O)[C@H]([C@@H](C)O)NC(=O)[C@H](Cc2ccccc2)NC(=O)[C@H](CCN)NC1=O)[C@@H](C)O ?
Solution: 60

Problem: What do we get for CCCCCCCC(=O)N[C@H](C(=O)N[C@@H](CO)C(=O)N[C@H]1CCNC(=O)[C@H]([C@@H](C)O)NC(=O)[C@H](CCN)NC(=O)[C@H](CCN)NC(=O)[C@H](CC(C)C)NC(=O)[C@H](Cc2ccccc2)NC(=O)[C@H](CCN)NC1=O)[C@@H](C)O ?
Solution: 80

Next molecule, inhibition zone (IZ) to be filled in.
Problem: inhibition zone (IZ) for CCCCCCCC(=O)N[C@H](C(=O)N[C@H](CO)C(=O)N[C@H]1CCNC(=O)[C@H]([C@@H](C)O)NC(=O)[C@H](CCN)NC(=O)[C@H](CCN)NC(=O)[C@H](CC(C)C)NC(=O)[C@@H](Cc2ccccc2)NC(=O)[C@H](CCN)NC1=O)[C@@H](C)O ?
Solution: 171

----------
- Tested on: Acinetobacter baumannii
- PROTOCOL_NOTES: Antibacterial activity against Acinetobacter baumannii ATCC 19606 by Etest method in presence of NAB739
- Type: functional
Kindly supply the reported fractional inhibitory concentration index (FICI) values for the records listed here.
One number for each entry.

Problem: Fill in: fractional inhibitory concentration index (FICI) of CO[C@H]1/C=C/O[C@@]2(C)Oc3c(C)c(O)c4c(O)c(c(/C=N/N5CCN(C)CC5)c(O)c4c3C2=O)NC(=O)/C(C)=C\C=C\[C@H](C)[C@H](O)[C@@H](C)[C@@H](O)[C@@H](C)[C@H](OC(C)=O)[C@@H]1C is ___
Solution: 0.126

Continue with the compound presented below.
Problem: Name the recorded fractional inhibitory concentration index (FICI) for C[C@@H](O)[C@H]1C(=O)N2C(C(=O)O)=C(S[C@@H]3CN[C@H](C(=O)N(C)C)C3)[C@H](C)[C@H]12 .
Solution: 0.5

----------
- System: Escherichia coli
- PROTOCOL_NOTES: Antibacterial activity against Escherichia coli IH3080 assessed as growth inhibition at 10 ug after 18 hrs by […]
- Assay type: functional
Bridge positions count the residues as written; N and C are the ends. Square brackets hold non-standard residues; d marks the D form. Peptide text beside a SMILES is read from it. * marks the point of attachment. Decanoyl = CCCCCCCCCC(=O)*; Octanoyl = CCCCCCCC(=O)*; Dab = NCC[C@H](N)C(=O)O; Abu = CC[C@H](N)C(=O)O
Please respond with reported inhibition zone (IZ) for every item in the list.
Answers are plain numbers, in mm2.

Examples from the recorded data:
Problem: Quick one: inhibition zone (IZ) of CCCCCCCCCC(=O)N[C@H](C(=O)N[C@H](CO)C(=O)N[C@H]1CCNC(=O)[C@H]([C@@H](C)O)NC(=O)[C@H](CCN)NC(=O)[C@H](CCN)NC(=O)[C@H](CC(C)C)NC(=O)[C@@H](Cc2ccccc2)NC(=O)[C@H](CCN)NC1=O)[C@@H](C)O (Decanoyl-T[dS][Dab][Dab][dF]L[Dab][Dab]T; lactam 3-C) ?
Solution: 130

Problem: Record: CCCCCCCC(=O)N[C@H](C(=O)N[C@@H](CC(N)=O)C(=O)N[C@H]1CCNC(=O)[C@H]([C@@H](C)O)NC(=O)[C@H](CCN)NC(=O)[C@H](CCN)NC(=O)[C@H](CC(C)C)NC(=O)[C@H](Cc2ccccc2)NC(=O)[C@H](CCN)NC1=O)[C@@H](C)O (Octanoyl-TN[Dab][Dab]FL[Dab][Dab]T; lactam 3-C)
Solution: 10

Further cases:
Problem: Record request: inhibition zone (IZ) value, item CCCCCCCC(=O)N[C@H](C(=O)N[C@@H](CCN)C(=O)N[C@H]1CCNC(=O)[C@H]([C@@H](C)O)NC(=O)[C@H](CC)NC(=O)[C@H](CCN)NC(=O)[C@H](CC(C)C)NC(=O)[C@@H](Cc2ccccc2)NC(=O)[C@H](CCN)NC1=O)[C@@H](C)O (Octanoyl-T[Dab][Dab][Dab][dF]L[Dab][Abu]T; lactam 3-C)
Solution: 0

----------
- System: Klebsiella pneumoniae
- PROTOCOL_NOTES: Antibacterial activity against Klebsiella pneumoniae ATCC 13883 by Etest method in presence of 2 ug/ml NAB7061
- Assay type: functional
Record form. Attribute: MIC. Fill in for each entry.
Numbers only, in µg/mL.

Worked set:
Problem: # get_value(readout= MIC, system= Klebsiella pneumoniae) for C/C(=C\C(=O)OCCCCCCCCC(=O)O)C[C@@H]1OC[C@H](C[C@@H]2O[C@H]2[C@@H](C)[C@H](C)O)[C@@H](O)[C@H]1O
Solution: 12

Problem: Another compound to look at: CO[C@H]1/C=C/O[C@@]2(C)Oc3c(C)c(O)c4c(O)c(c(/C=N/N5CCN(C)CC5)c(O)c4c3C2=O)NC(=O)/C(C)=C\C=C\[C@H](C)[C@H](O)[C@@H](C)[C@@H](O)[C@@H](C)[C@H](OC(C)=O)[C@@H]1C
Solution: 0.25

Problem: One more compound: CC[C@H]1OC(=O)[C@H](C)[C@@H](O[C@H]2C[C@@](C)(OC)[C@@H](O)[C@H](C)O2)[C@H](C)[C@@H](O[C@@H]2O[C@H](C)C[C@H](N(C)C)[C@H]2O)[C@](C)(OC)C[C@@H](C)C(=O)[C@H](C)[C@@H](O)[C@]1(C)O
Solution: 1

Problem: CC[C@H]1OC(=O)[C@H](C)[C@@H](O[C@H]2C[C@@](C)(OC)[C@@H](O)[C@H](C)O2)[C@H](C)[C@@H](O[C@@H]2O[C@H](C)C[C@H](N(C)C)[C@H]2O)[C@](C)(O)C[C@@H](C)C(=O)[C@H](C)[C@@H](O)[C@]1(C)O ?
Solution: 2

# ---- query compound ----
Problem: Fill in the recorded MIC for this compound, with Klebsiella pneumoniae as test system: CC[C@H]1OC(=O)[C@H](C)[C@@H](O[C@H]2C[C@@](C)(OC)[C@@H](O)[C@H](C)O2)[C@H](C)[C@@H](O[C@@H]2O[C@H](C)C[C@H](N(C)C)[C@H]2O)[C@](C)(O)C[C@@H](C)CN(C)[C@H](C)[C@@H](O)[C@]1(C)O
Solution: 0.19

----------
- System: Escherichia coli
- PROTOCOL_NOTES: Antibacterial activity against Escherichia coli IH3080 assessed as growth inhibition at 10 ug after 18 hrs by […]
- Format: functional
Bridge positions count the residues as written; N and C are the ends. Square brackets hold non-standard residues; d marks the D form. Peptide text beside a SMILES is read from it. * marks the point of attachment. Octanoyl = CCCCCCCC(=O)*; Dab = NCC[C@H](N)C(=O)O; Abu = CC[C@H](N)C(=O)O
PROPERTY_NAME: inhibition zone (IZ) (mm2)
Give bare numbers, in mm2.

Problem: # query: inhibition zone (IZ) | item CCCCCCCC(=O)N[C@H](C(=O)N[C@@H](CCN)C(=O)N[C@H]1CCNC(=O)[C@H]([C@@H](C)O)NC(=O)[C@H](CCN)NC(=O)[C@H](CCN)NC(=O)[C@H](CC(C)C)NC(=O)[C@@H](Cc2ccccc2)NC(=O)[C@H](CC)NC1=O)[C@@H](C)O (Octanoyl-T[Dab][Dab][Abu][dF]L[Dab][Dab]T; lactam 3-C) | system: Escherichia coli
Solution: 0

Next:
Problem: Checklist item: inhibition zone (IZ) tested on Escherichia coli, entry CCCCCCCC(=O)N[C@H](C(=O)N[C@@H](CC)C(=O)N[C@H]1CCNC(=O)[C@H]([C@@H](C)O)NC(=O)[C@H](CCN)NC(=O)[C@H](CC)NC(=O)[C@H](CC(C)C)NC(=O)[C@@H](Cc2ccccc2)NC(=O)[C@H](CCN)NC1=O)[C@@H](C)O (Octanoyl-T[Abu][Dab][Dab][dF]L[Abu][Dab]T; lactam 3-C) , value?
Solution: 0
